# measurement notes: Acute toxicity
# Format: in vivo
# study conditions: oral, mice
Counter-ions that a name gives are not always drawn.
quantity name: DL0 (maximum dose which did not cause any mortality after 8 days)

Record O=C(NC1=NCCS1)c1cnc2ccc(Cl)cc2c1O [Example 6, hydrochloride] . Reported DL0 (maximum dose which did not cause any mortality after 8 days): > 400 mg/kg

Record `CC(C)c1ccc2ncc(C(=O)NC3=NCCS3)c(O)c2c1` . Reported DL0 (maximum dose which did not cause any mortality after 8 days): > 1000 mg/kg

Record Cc1nc2ccccc2c(O)c1C(=O)NC1=NCCS1 [Example 9, hydrochloride] . Reported DL0 (maximum dose which did not cause any mortality after 8 days): > 1000 mg/kg

Record `Cl.O=C(NC1=NCCS1)c1cnc2ccccc2c1O` . Reported DL0 (maximum dose which did not cause any mortality after 8 days): > 400 mg/kg

Record COc1ccc2c(O)c(C(=O)NC3=NCCS3)cnc2c1 [Example 8, hydrochloride] . Reported DL0 (maximum dose which did not cause any mortality after 8 days): > 400 mg/kg

Record O=C(NC1=NCCS1)c1cnc2cc(Cl)ccc2c1O [Example 5, hydrochloride] . Reported DL0 (maximum dose which did not cause any mortality after 8 days): > 1000 mg/kg

Record `CCc1ccc2ncc(C(=O)NC3=NCCS3)c(O)c2c1.Cl` . Reported DL0 (maximum dose which did not cause any mortality after 8 days): > 400 mg/kg
